System Under Test: NACHT, LRR and PYD domains-containing protein 3 (Mus musculus, UniProt Q8R4B8)
Sequence (Q8R4B8 whole entry, the tested form may be a part): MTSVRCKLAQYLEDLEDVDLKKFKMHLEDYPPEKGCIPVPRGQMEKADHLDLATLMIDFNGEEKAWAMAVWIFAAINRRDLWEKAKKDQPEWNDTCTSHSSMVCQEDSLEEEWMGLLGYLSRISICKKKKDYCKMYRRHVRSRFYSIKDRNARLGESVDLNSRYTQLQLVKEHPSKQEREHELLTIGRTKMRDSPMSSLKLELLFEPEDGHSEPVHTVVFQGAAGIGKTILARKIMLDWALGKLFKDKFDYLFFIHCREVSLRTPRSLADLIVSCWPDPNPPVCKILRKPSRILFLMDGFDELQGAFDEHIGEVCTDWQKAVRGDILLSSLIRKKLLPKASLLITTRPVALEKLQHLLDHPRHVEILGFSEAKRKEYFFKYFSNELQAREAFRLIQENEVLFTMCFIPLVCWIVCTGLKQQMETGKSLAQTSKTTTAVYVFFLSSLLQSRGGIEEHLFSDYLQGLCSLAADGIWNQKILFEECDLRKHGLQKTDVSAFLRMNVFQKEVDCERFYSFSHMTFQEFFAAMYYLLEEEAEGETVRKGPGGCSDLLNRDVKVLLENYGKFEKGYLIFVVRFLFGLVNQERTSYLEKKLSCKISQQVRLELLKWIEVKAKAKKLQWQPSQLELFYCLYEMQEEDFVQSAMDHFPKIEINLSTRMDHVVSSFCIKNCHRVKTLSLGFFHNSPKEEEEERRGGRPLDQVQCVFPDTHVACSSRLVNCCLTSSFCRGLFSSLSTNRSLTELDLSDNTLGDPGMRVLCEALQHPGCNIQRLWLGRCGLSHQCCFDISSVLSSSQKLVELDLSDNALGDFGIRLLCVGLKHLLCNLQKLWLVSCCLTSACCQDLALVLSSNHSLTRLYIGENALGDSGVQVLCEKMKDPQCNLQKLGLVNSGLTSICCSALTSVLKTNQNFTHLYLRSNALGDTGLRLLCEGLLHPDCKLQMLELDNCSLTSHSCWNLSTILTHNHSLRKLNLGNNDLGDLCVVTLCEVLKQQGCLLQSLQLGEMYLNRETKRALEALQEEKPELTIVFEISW
Test Name: Inhibition of NLRP3 inflammasome in LPS-primed mouse J774.A1 cells assessed as reduction in IL-1beta secretion preincubated with compound for 1 hr followed by nigericin stimulation for 1 hr by ELISA
pIC50: −log10 of the molar value.
Reported Property: pIC50

Smiles Code	pIC50
CCCCc1oc2ccc(NS(=O)(=O)NC)cc2c1C(=O)c1ccc(OCCCN(CCCC)CCCC)cc1	4.94

(I) CCCCc1oc2ccc(NC(=O)NC(C)C)cc2c1C(=O)c1ccc(OCCCN(CCCC)CCCC)cc1
(II) CCCCc1oc2ccc(NC(=O)Nc3ccc(OC)cc3)cc2c1C(=O)c1ccc(OCCCN(CCCC)CCCC)cc1
-- ask # returns the entry with the larger pIC50; inputs I and II Your choice should be expressed through its label.
-- reply I

* * *

System Under Test: NACHT, LRR and PYD domains-containing protein 3 (Mus musculus)
Test Name: Inhibition of NLRP3 inflammasome in LPS-primed mouse J774.A1 cells assessed as reduction in IL-1beta secretion preincubated with compound for 1 hr followed by nigericin stimulation for 1 hr by ELISA
pIC50: −log10 of the molar value.
Reported Property: pIC50

Examples from the recorded data:
Smiles Code	System Under Test	Reported Property	Experimental Value
CCCCc1oc2ccc(NC(C)=O)cc2c1C(=O)c1ccc(OCCCN(CCCC)CCCC)cc1	NACHT, LRR and PYD domains-containing protein 3 (Mus musculus)	pIC50	5.17
CCCCc1oc2ccc(S(=O)(=O)NC(C)C)cc2c1C(=O)c1ccc(OCCCN(CCCC)CCCC)cc1	NACHT, LRR and PYD domains-containing protein 3 (Mus musculus)	pIC50	4.37
CCCCc1oc2ccc(NS(=O)(=O)c3cccnc3)cc2c1C(=O)c1ccc(OCCCN(CCCC)CCCC)cc1	NACHT, LRR and PYD domains-containing protein 3 (Mus musculus)	pIC50	4.48
CCCCc1oc2ccc(NC(=O)NCCC)cc2c1C(=O)c1ccc(OCCCN(CCCC)CCCC)cc1	NACHT, LRR and PYD domains-containing protein 3 (Mus musculus)	pIC50	4.72
CCCCc1oc2ccc(NC(=O)Nc3ccc(C#N)cc3)cc2c1C(=O)c1ccc(OCCCN(CCCC)CCCC)cc1	NACHT, LRR and PYD domains-containing protein 3 (Mus musculus)	pIC50	4.73
CCCCc1oc2ccc(NC(=O)Nc3ccc(C)cc3)cc2c1C(=O)c1ccc(OCCCN(CCCC)CCCC)cc1	NACHT, LRR and PYD domains-containing protein 3 (Mus musculus)	pIC50	4.15
CCCCc1oc2ccc(NS(=O)(=O)c3ccc(C(F)(F)F)cc3)cc2c1C(=O)c1ccc(OCCCN(CCCC)CCCC)cc1	NACHT, LRR and PYD domains-containing protein 3 (Mus musculus)	pIC50	4.09
CCCCc1oc2ccc(NS(=O)(=O)c3ccccc3)cc2c1C(=O)c1ccc(OCCCN(CCCC)CCCC)cc1	NACHT, LRR and PYD domains-containing protein 3 (Mus musculus)	pIC50	4.97
CCCCc1oc2ccc(NS(C)(=O)=O)cc2c1C(=O)c1ccc(OCCCN(CCCC)CCCC)cc1	NACHT, LRR and PYD domains-containing protein 3 (Mus musculus)	pIC50	5.16
CCCCc1oc2ccc(S(N)(=O)=O)cc2c1C(=O)c1ccc(OCCCN(CCCC)CCCC)cc1	NACHT, LRR and PYD domains-containing protein 3 (Mus musculus)	pIC50	4.57

(P) C=CS(=O)(=O)Nc1ccc2oc(CCCC)c(C(=O)c3ccc(OCCCN(CCCC)CCCC)cc3)c2c1
(Q) CCCCc1oc2ccc(NS(=O)(=O)NC(C)C)cc2c1C(=O)c1ccc(OCCCN(CCCC)CCCC)cc1
(R) CCCCc1oc2ccc(S(=O)(=O)NOC)cc2c1C(=O)c1ccc(OCCCN(CCCC)CCCC)cc1
-- ask Endpoint returns the given compounds ordered by ascending pIC50. Please respond with the labels ordered as the question requires.
-- reply R, P, Q

(A) CCCCc1oc2ccc(NC(=O)NC3CCCCC3)cc2c1C(=O)c1ccc(OCCCN(CCCC)CCCC)cc1
(B) CCCCc1oc2ccc(NS(=O)(=O)C3CC3)cc2c1C(=O)c1ccc(OCCCN(CCCC)CCCC)cc1
(C) CCCCc1oc2ccc(NS(=O)(=O)c3ccc(C)cc3)cc2c1C(=O)c1ccc(OCCCN(CCCC)CCCC)cc1
(D) CCCCc1oc2ccc(NS(=O)(=O)N(C)C)cc2c1C(=O)c1ccc(OCCCN(CCCC)CCCC)cc1
(E) CCCCc1oc2ccc(NC(=O)C(C)C)cc2c1C(=O)c1ccc(OCCCN(CCCC)CCCC)cc1
-- ask Order the entries by their reported pIC50, beginning at the minimum. Provide the ranking by listing each label in its place in the requested order.
-- reply A, B, C, D, E

(I) CCCCc1oc2ccc(NC(=O)c3ccccc3)cc2c1C(=O)c1ccc(OCCCN(CCCC)CCCC)cc1
(II) CCCCc1oc2ccc(NS(=O)(=O)c3ccc(OC)cc3)cc2c1C(=O)c1ccc(OCCCN(CCCC)CCCC)cc1
(III) CCCCc1oc2ccc(S(=O)(=O)N(C)C)cc2c1C(=O)c1ccc(OCCCN(CCCC)CCCC)cc1
(IV) CCCCC(=O)Nc1ccc2oc(CCCC)c(C(=O)c3ccc(OCCCN(CCCC)CCCC)cc3)c2c1
-- ask Please produce an ascending ranking of these compounds based on pIC50. Provide your answer as the labels ordered per the instruction.
-- reply III, II, I, IV

(I) CCCCc1oc2ccc(NS(=O)(=O)CC)cc2c1C(=O)c1ccc(OCCCN(CCCC)CCCC)cc1
(II) CCCCc1oc2ccc(NC(=O)C(C)(C)C)cc2c1C(=O)c1ccc(OCCCN(CCCC)CCCC)cc1
-- ask Compare pIC50: is it lower for I or for II ? Answer by quoting the chosen item's label.
-- reply I
(I: 4.72, II: 5.04)

(A) CCCCc1oc2ccc(NC(=O)NC3CCCC3)cc2c1C(=O)c1ccc(OCCCN(CCCC)CCCC)cc1
(B) CCCCc1oc2ccc(NS(=O)(=O)c3ccc(F)cc3)cc2c1C(=O)c1ccc(OCCCN(CCCC)CCCC)cc1
-- ask Between A and B , whose measured pIC50 reads higher? Return value: the label identifying the chosen record.
-- reply B
(B: 4.90, A: 4.60)
